Values compiled from the NIST ThermoML archive (doi:10.1021/je0255628).

Assay conditions: 313.15 K; Liquid
Reported property: vapor or sublimation pressure (kPa)
Give bare numbers, in kPa.

These solved cases illustrate the format of a correct answer.
>  <Compound>
CCOC(C)=O [ethyl acetate]

>  <Value units>
kPa

>  <vapor or sublimation pressure>
25.08

$$$$
>  <Compound>
COC(C)=O [methyl ethanoate]

>  <Value units>
kPa

>  <vapor or sublimation pressure>
53.81

$$$$
>  <Compound>
CCOC(=O)CC [ethyl propanoate]

>  <Value units>
kPa

>  <vapor or sublimation pressure>
10.6

$$$$

Okay, now this compound:
GET /values?readout=vapor or sublimation pressure&item= CCCOC(C)=O [propyl ethanoate] 9.586
